Details: human, 8 h, pH 7.4
Where a name gives a salt, the structure may show the parent alone.
PARAMETER_MEASURED: The cumulative amount of test compounds (mg)

Solved cases below.
{"columns": ["MOLECULE", "READOUT_UNIT", "The cumulative amount of test compounds"],
 "data": [
  ["CC(C)OC(=O)[C@H](Cc1ccc(OC(=O)c2ccccc2)c(OC(=O)c2ccccc2)c1)NC(=O)C1CCNCC1 [Compound-18, hydrochloride]", "mg", 4.19],
  ["CC(C)OC(=O)[C@H](Cc1ccc2c(c1)OC(=O)C(N)CC(=O)O2)NC(=O)OC(C)OC(=O)C(C)C (some centres unmarked) [Compound-20(b), hydrobromide]", "mg", 3.52],
  ["CC(OC(=O)NCCc1ccc2c(c1)OC(=O)C(N)CC(=O)O2)OC(=O)C(C)C (centres unmarked)", "mg", 4.83],
  ["CCN(CC)CCOC(=O)c1ccccc1OC(C)=O.Cl", "mg", 8.48],
  ["CCCC(CCC)OC(=O)[C@@H](N)Cc1ccc(OC(=O)c2ccccc2)c(OC(=O)c2ccccc2)c1.Cl", "mg", 4.29],
  ["CC(C)OC(=O)[C@H](Cc1ccc2c(c1)OC(=O)CC(N)C(=O)O2)NC(=O)OC(C)OC(=O)C(C)C (some centres unmarked) [Compound-20(a), hydrobromide]", "mg", 3.49]
]}

[P] CCN(CC)CCOC(=O)CC1=C(C)/C(=C/c2ccc([S+](C)[O-])cc2)c2ccc(F)cc21 (centres unmarked)
[Q] CCC(CC)OC(=O)[C@H](Cc1ccc(OC(=O)c2ccccc2)c(OC(=O)c2ccccc2)c1)NC(=O)C1CCCN1 (some centres unmarked)
Exercise: Hi, I'm comparing P with Q and wondering which one has the bigger number for The cumulative amount of test compounds. Any idea? # respond with the chosen item's label
Key: P
(P: 7.15 mg, Q: 4.71 mg)

From: patent US11685739B2
